Reference for the values: patent US6831199B1

Catalogue of IC50 values
molecular target: Human fibrinogen receptor (αIIbβ3) (Homo sapiens, UniProt P05106+P08514); construct: Human fibrinogen receptor (αIIbβ3) was purified from outdated platelets; from tissue; host or cells: outdated human platelets; assay: Purified IIb/IIIa receptor assay (solid phase receptor assay, competition with biotinylated vitronectin); type: binding; settings: read-out: IIb/IIIa IC50
Sequence (P08514 32-887 limits assumed): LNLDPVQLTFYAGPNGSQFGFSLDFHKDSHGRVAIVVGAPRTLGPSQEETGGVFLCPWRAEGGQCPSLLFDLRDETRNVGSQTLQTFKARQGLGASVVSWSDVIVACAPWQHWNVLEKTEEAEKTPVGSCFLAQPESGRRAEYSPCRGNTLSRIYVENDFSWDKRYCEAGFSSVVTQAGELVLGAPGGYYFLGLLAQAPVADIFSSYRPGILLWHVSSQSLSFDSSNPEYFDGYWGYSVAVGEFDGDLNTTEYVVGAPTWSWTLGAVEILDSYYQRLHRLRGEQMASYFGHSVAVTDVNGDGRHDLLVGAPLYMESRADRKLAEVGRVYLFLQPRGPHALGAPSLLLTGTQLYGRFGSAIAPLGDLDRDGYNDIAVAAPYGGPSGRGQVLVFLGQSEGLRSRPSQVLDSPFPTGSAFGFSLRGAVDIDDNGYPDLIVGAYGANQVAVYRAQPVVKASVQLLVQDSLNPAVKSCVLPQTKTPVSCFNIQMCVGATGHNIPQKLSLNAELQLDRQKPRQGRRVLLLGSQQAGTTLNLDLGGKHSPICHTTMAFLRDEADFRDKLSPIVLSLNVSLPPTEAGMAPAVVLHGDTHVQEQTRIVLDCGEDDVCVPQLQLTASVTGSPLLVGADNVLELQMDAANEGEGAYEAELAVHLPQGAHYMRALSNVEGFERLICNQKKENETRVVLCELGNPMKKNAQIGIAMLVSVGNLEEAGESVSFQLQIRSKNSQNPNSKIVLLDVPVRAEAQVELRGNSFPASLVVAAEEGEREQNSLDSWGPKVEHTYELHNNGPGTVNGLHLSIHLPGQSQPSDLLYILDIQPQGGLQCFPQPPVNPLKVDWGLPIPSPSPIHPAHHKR
Sequence (P08514 891-1039 limits assumed): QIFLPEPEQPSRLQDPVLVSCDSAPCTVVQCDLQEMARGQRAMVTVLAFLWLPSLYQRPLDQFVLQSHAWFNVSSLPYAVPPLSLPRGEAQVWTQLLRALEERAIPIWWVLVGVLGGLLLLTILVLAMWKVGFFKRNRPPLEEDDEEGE
Sequence (P05106 27-788): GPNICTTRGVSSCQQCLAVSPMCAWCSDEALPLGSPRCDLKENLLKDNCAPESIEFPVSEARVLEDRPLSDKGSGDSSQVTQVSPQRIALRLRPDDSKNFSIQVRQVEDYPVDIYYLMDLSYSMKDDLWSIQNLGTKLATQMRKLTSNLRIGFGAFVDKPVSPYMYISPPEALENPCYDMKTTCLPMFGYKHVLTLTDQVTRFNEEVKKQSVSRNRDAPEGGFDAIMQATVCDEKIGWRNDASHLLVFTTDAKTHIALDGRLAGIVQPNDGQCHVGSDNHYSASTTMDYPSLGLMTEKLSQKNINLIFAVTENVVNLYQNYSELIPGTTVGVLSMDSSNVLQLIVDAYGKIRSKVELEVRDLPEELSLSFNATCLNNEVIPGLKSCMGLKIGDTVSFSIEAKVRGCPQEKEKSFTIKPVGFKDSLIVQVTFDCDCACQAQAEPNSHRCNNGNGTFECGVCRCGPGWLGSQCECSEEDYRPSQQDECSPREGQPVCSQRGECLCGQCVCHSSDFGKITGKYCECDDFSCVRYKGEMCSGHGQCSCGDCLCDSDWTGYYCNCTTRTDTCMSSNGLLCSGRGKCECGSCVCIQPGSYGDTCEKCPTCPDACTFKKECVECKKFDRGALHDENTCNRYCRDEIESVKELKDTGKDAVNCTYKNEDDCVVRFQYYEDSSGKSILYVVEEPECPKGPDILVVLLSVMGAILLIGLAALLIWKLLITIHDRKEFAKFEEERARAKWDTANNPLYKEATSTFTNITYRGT
Where a name gives a salt, the structure may show the parent alone.
Property name: IC50 (µM)

{"Compound": "N=C(N)Nc1cccc(C(=O)NCC(=O)N[C@H](CSc2ccccc2C(=O)O)CC(=O)O)c1 [Example 72, trifluoroacetate salt]", "Property name": "IC50", "Comparison sign": "=", "Recorded measurement": 0.152}
{"Compound": "CCOC(=O)NC(=N)Nc1cccc(C(=O)NCC(=O)NC(CC(=O)O)c2cc(Cl)cc(Cl)c2)c1 (stereo not drawn) [Example 241, trifluoroacetate salt, monohydrate]", "Property name": "IC50", "Comparison sign": "=", "Recorded measurement": 17.2}
{"Compound": "C/N=C(\\NCc1ccncc1)Nc1cccc(C(=O)NCC(=O)NC(CC(=O)O)c2ccc(F)cc2)c1 (racemic) [Example 299, trifluoroacetate salt]", "Property name": "IC50", "Comparison sign": "=", "Recorded measurement": 0.927}
{"Compound": "COC(=O)CC(CC(=O)O)NC(=O)CNC(=O)c1cccc(NC(=N)N)c1 (racemic) [Example 54, trifluoroacetate salt]", "Property name": "IC50", "Comparison sign": "=", "Recorded measurement": 0.175}
{"Compound": "Cc1ccc(C(=O)NCC(=O)NC(CC(=O)O)c2cccnc2)cc1N (stereo not drawn) [Example 84]", "Property name": "IC50", "Comparison sign": "=", "Recorded measurement": 0.246}
{"Compound": "N#C/N=C(/N)Nc1cccc(C(=O)NCC(=O)NC(CC(=O)O)c2cc(Cl)cc(Cl)c2)c1 (stereo not drawn) [Example 160]", "Property name": "IC50", "Comparison sign": "=", "Recorded measurement": 10.4}
{"Compound": "COc1ccc(Br)cc1C(CC(=O)O)NC(=O)CNC(=O)c1cccc(NC(=N)N)c1 (stereo not drawn) [Example 257, trifluoroacetate salt]", "Property name": "IC50", "Comparison sign": "=", "Recorded measurement": 4.66}
{"Compound": "COc1ccc(C(CC(=O)O)NC(=O)CNC(=O)c2cccc(NC(=N)N)c2)c(O)c1 (racemic) [Example 222]", "Property name": "IC50", "Comparison sign": "=", "Recorded measurement": 0.112}
{"Compound": "CCC(CC(=O)O)NC(=O)CNC(=O)c1cccc(NC(=N)N)c1 (stereo not drawn) [Example 264, trifluoroacetate salt]", "Property name": "IC50", "Comparison sign": "=", "Recorded measurement": 0.574}
{"Compound": "N=C(N)Nc1cccc(C(=O)NCC(=O)NC(CC(=O)O)C2CCCCC2)c1 (racemic) [Example 229, trifluoroacetate salt, monohydrate]", "Property name": "IC50", "Comparison sign": "=", "Recorded measurement": 10.6}
{"Compound": "CC1(C)CN=C(Nc2cccc(C(=O)NCC(=O)NC(CC(=O)O)c3cc(Cl)cc(Cl)c3O)c2)NC1 (racemic) [Example 362, trifluoroacetate salt]", "Property name": "IC50", "Comparison sign": "=", "Recorded measurement": 7.26}
{"Compound": "CCOC(=O)CC(NC(=O)CNC(=O)c1cccc(NC(N)=O)c1)c1cccnc1 (stereo not drawn) [Example 109, trifluoroacetate salt]", "Property name": "IC50", "Comparison sign": ">", "Recorded measurement": 100}
{"Compound": "O=C(O)CC(NC(=O)CNC(=O)c1cccc(NC(=O)Nc2ccccc2)c1)c1ccc2c(c1)OCO2 (stereo not drawn) [Example 124]", "Property name": "IC50", "Comparison sign": "=", "Recorded measurement": 0.317}
{"Compound": "N=C(N)Nc1cc(C(=O)NCC(=O)NC(CC(=O)O)c2cc(Cl)cc(Cl)c2)cc(C(F)(F)F)c1 (racemic) [Example 177, trifluoroacetate salt]", "Property name": "IC50", "Comparison sign": "=", "Recorded measurement": 0.137}
{"Compound": "O=C(O)CC(NC(=O)CNC(=O)c1cccc(NC(=O)NCc2ccccn2)c1)c1cccnc1 (stereo not drawn) [Example 268]", "Property name": "IC50", "Comparison sign": "=", "Recorded measurement": 7.43}
{"Compound": "CCOC(=O)NC(=S)Nc1cccc(C(=O)NCC(=O)NC(CC(=O)O)c2cc(Cl)cc(Cl)c2)c1 (stereo not drawn) [Example 240]", "Property name": "IC50", "Comparison sign": "=", "Recorded measurement": 76.4}
{"Compound": "CN(CC(=O)NC(CC(=O)O)c1cccnc1)C(=O)c1cccc(NC(=N)N)c1 (racemic) [Example 80]", "Property name": "IC50", "Comparison sign": "=", "Recorded measurement": 0.00435}
{"Compound": "N=C(N)Nc1cc(C(=O)O)cc(C(=O)NCC(=O)NC(CC(=O)O)c2cccnc2)c1 (stereo not drawn) [Example 289]", "Property name": "IC50", "Comparison sign": "=", "Recorded measurement": 0.621}
{"Compound": "CN/C(=N\\C#N)Nc1cccc(C(=O)NCC(=O)NC(CC(=O)O)c2ccccc2)c1 (stereo not drawn) [Example 137]", "Property name": "IC50", "Comparison sign": "=", "Recorded measurement": 6.5}
{"Compound": "C#C[C@H](CC(=O)O)NC(=O)CNC(=O)c1cccc(NC(=O)NCc2ccccc2)c1 [Example 44]", "Property name": "IC50", "Comparison sign": "=", "Recorded measurement": 0.998}
{"Compound": "N=C(N)Nc1cccc(C(=O)NCC(=O)N[C@H](CSc2ccccc2)CC(=O)O)c1 [Example 68, trifluoroacetate salt]", "Property name": "IC50", "Comparison sign": "=", "Recorded measurement": 0.125}
{"Compound": "Cc1ccsc1C(CC(=O)O)NC(=O)CNC(=O)c1cccc(NC(=N)N)c1 (stereo not drawn) [Example 244, trifluoroacetate salt]", "Property name": "IC50", "Comparison sign": "=", "Recorded measurement": 4.56}
{"Compound": "N=C(N)Nc1cccc(C(=O)NCC(=O)NC(CC(=O)O)c2ccc(-c3ccccc3)cc2)c1 (racemic) [Example 37, trifluoroacetate salt]", "Property name": "IC50", "Comparison sign": "=", "Recorded measurement": 0.0139}
{"Compound": "C#C[C@H](CC(=O)O)NC(=O)CNC(=O)c1cccc(NC(=N)N2CCCC2)c1 [Example 34, trifluoroacetate salt]", "Property name": "IC50", "Comparison sign": "=", "Recorded measurement": 0.269}
{"Compound": "NC(=S)Nc1cccc(C(=O)NCC(=O)NC(CC(=O)O)c2cccnc2)c1 (stereo not drawn) [Example 114, trifluoroacetate salt]", "Property name": "IC50", "Comparison sign": "=", "Recorded measurement": 2.94}
{"Compound": "O=C(O)CC(NC(=O)CNC(=O)c1cccc(NC(=O)NCc2ccccc2)c1)c1cccnc1 (racemic) [Example 47, hydrochloride salt]", "Property name": "IC50", "Comparison sign": "=", "Recorded measurement": 4.27}
{"Compound": "N=C(N)Nc1cccc(C(=O)NCC(=O)NC(CC(=O)O)c2ccc(Br)s2)c1 (stereo not drawn) [Example 366, trifluoroacetate salt, monohydrate]", "Property name": "IC50", "Comparison sign": "=", "Recorded measurement": 0.0913}
